PARAMETER MEASURED: melting point

Task item: What value of measured melting point is listed for Cl.Cl.c1ccc2ncc(N3C[C@H]4CNC[C@H]4C3)cc2c1 [Example 5] ?
Reply: > 260 °C

Task item: What value of measured melting point is listed for CCOc1cncc(N2C[C@H]3CNC[C@H]3C2)c1 [Example 8] ?
Reply: 226 to 227 °C

Task item: What value of measured melting point is listed for Cl.Cl.c1cncc(N2C[C@H]3CNC[C@H]3C2)c1 [Example 1] ?
Reply: 250 to 252 °C (dec.)

Task item: What value of measured melting point is listed for Cl.Cl.FC(F)(F)COc1cncc(N2C[C@H]3CNC[C@H]3C2)c1 [Example 12] ?
Reply: 233 to 234 °C (dec.)

Task item: What value of measured melting point is listed for CN1C[C@@H]2CN(c3cccnc3)C[C@@H]2C1.Cl [Example 2] ?
Reply: 207 to 209 °C

Task item: What value of measured melting point is listed for Cl.Clc1ccc(N2C[C@H]3CNC[C@H]3C2)cn1 [Example 3] ?
Reply: 230 to 236 °C (dec.)

----------
Kindly state log10 Ki for each of the entries shown.
target: neuronal nicotinic acetylcholine receptors (Rattus norvegicus, UniProt P09483+P12390); construct: crude synaptic membrane preparations from whole rat brain; from tissue; host or cells: whole rat brain, crude synaptic membranes; assay: Binding of [3H]-cytisine to neuronal nicotinic acetylcholine receptors, crude synaptic membranes from whole rat brain
Sequence (P09483 31-630): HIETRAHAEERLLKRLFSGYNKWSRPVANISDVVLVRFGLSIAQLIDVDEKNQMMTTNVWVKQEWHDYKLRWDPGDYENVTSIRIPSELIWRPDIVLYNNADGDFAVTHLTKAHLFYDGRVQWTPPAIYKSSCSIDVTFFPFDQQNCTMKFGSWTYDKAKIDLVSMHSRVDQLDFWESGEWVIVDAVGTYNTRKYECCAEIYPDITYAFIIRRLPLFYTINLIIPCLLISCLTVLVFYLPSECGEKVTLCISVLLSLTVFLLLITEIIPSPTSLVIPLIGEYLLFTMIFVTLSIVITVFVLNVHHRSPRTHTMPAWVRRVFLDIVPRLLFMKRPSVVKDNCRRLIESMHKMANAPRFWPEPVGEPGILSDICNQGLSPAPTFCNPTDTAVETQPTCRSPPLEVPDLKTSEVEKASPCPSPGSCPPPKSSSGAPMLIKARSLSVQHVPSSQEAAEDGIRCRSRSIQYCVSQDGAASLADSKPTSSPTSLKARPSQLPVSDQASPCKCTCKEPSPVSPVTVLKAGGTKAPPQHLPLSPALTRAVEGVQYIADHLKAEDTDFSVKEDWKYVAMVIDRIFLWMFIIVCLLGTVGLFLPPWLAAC
Sequence (P12390 25-500): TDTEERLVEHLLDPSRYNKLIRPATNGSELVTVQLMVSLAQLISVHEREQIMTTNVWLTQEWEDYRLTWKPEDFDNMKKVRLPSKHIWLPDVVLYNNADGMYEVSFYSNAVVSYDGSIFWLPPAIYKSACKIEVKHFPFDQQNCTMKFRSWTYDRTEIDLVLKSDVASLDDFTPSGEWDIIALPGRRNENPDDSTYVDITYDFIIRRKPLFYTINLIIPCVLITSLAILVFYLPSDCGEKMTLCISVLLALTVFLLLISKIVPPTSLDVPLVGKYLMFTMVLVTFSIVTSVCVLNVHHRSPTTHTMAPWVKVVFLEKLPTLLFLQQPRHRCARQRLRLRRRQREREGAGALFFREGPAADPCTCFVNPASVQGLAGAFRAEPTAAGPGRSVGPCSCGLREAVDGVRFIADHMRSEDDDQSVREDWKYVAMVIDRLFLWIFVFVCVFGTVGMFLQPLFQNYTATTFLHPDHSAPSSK
Structures can show the parent of a compound that is named as a salt.
All values: base-10 log of Ki in nM.

Task item: What value of measured log10 Ki is listed for CCOc1cncc(N2C[C@H]3CNC[C@H]3C2)c1 [Example 8, dihydrochloride] ?
Reply: -1.40

Task item: What value of measured log10 Ki is listed for Clc1ccc(N2C[C@@H]3CCN[C@@H]3C2)cn1 [Example 15, dihydrochloride] ?
Reply: 0.80

Task item: What value of measured log10 Ki is listed for Cc1cc(N2C[C@@H]3CCNC[C@@H]32)cnc1Cl [Example 90, fumarate] ?
Reply: -1.40

Task item: What value of measured log10 Ki is listed for COc1cc(N2C[C@H]3CNC[C@H]32)cnc1Br [Example 95, 4-methylbenzenesulfonate] ?
Reply: -0.92

Task item: What value of measured log10 Ki is listed for Clc1ccc(N2C[C@@H]3CN[C@@H]3C2)cn1 (relative stereo) [Example 41, fumarate] ?
Reply: 0.28

Task item: What value of measured log10 Ki is listed for c1cncc(N2CC[C@@H]3CCN[C@@H]3C2)c1 (relative stereo) [Example 39, dihydrochloride] ?
Reply: -0.27

Task item: What value of measured log10 Ki is listed for Cc1cc(N2C[C@H]3CCN[C@H]3C2)cnc1Cl [Example 27, hydrochloride] ?
Reply: -1.00

Task item: What value of measured log10 Ki is listed for Oc1cncc(N2C[C@H]3CNC[C@H]3C2)c1 [Example 6, dihydrochloride] ?
Reply: -0.12

Task item: What value of measured log10 Ki is listed for Brc1cncc(N2C[C@H]3CNC[C@H]32)c1 [Example 53, fumarate] ?
Reply: 0.49

Task item: What value of measured log10 Ki is listed for Clc1ccc(N2CC[C@@H]3CNC[C@@H]32)cn1 [Example 73, fumarate] ?
Reply: 1.38

Task item: What value of measured log10 Ki is listed for N#CCc1cc(N2C[C@H]3CCN[C@H]3C2)cnc1Br [Example 66, fumarate] ?
Reply: -0.59

Task item: What value of measured log10 Ki is listed for C=Cc1cncc(N2C[C@H]3CCN[C@H]3C2)c1 [Example 56, dihydrochloride] ?
Reply: -0.21

Task item: What value of measured log10 Ki is listed for c1cncc(N2CC[C@@H]3CNC[C@@H]32)c1 [Example 75, fumarate] ?
Reply: 0.84

Task item: What value of measured log10 Ki is listed for Cc1cc(N2C[C@@H]3CCN[C@@H]3C2)cnc1Cl [Example 26, hydrochloride] ?
Reply: -0.21

Task item: What value of measured log10 Ki is listed for CN1C[C@@H]2CN(c3ccc(Cl)nc3)C[C@@H]2C1 [Example 4, dihydrochloride] ?
Reply: 1.56

Task item: What value of measured log10 Ki is listed for Clc1ccc(N2C[C@H]3CNC[C@H]32)cn1 (relative stereo) [Example 46, fumarate] ?
Reply: -0.14

Task item: What value of measured log10 Ki is listed for N#Cc1cncc(N2C[C@@H]3CCNC[C@@H]32)c1 [Example 50, fumarate] ?
Reply: -0.29

Task item: What value of measured log10 Ki is listed for Brc1cncc(N2C[C@H]3CCN[C@H]3C2)c1 [Example 36, dihydrochloride] ?
Reply: -0.77

Task item: What value of measured log10 Ki is listed for Cc1cc(N2C[C@H]3CNC[C@H]3C2)cnc1Cl [Example 11, dihydrochloride] ?
Reply: -1.40

Task item: What value of measured log10 Ki is listed for c1cncc(N2CC[C@H]3CN[C@H]3C2)c1 (relative stereo) [Example 33, tris(4-methylbenzenesulfonate)] ?
Reply: -1.70

Task item: What value of measured log10 Ki is listed for Cl.Cl.c1cncc(N2C[C@H]3CNC[C@H]3C2)c1 [Example 1, dihydrochloride] ?
Reply: -0.92

Task item: What value of measured log10 Ki is listed for c1cncc(N2C[C@H]3CCCN[C@H]3C2)c1 (relative stereo) [Example 23, dihydrochloride] ?
Reply: 0.61

----------
system: Male Sprague-Dawley rats; assay: Formalin test (analgesia); assay type: in vivo; conditions: Rattus norvegicus, ip, intraperitoneally 5 minutes before injection of 50 μL 5% formalin into rear paw, nocifensive behaviors, read-out: (MED) minimally effective dose, formalin test
Counter-ions that a name gives are not always drawn.
Kindly state minimal effective dose for each of the entries shown.
Numbers only here, please. The scale is µmol/kg.

Task item: What value of measured minimal effective dose is listed for c1cncc(N2CC3CNCC32)c1 (centres unmarked) [Example 40] ?
Reply: 1.9

Task item: What value of measured minimal effective dose is listed for c1cncc(N2CC[C@H]3CN[C@H]3C2)c1 (relative stereo) [Example 33, tris(4-methylbenzenesulfonate)] ?
Reply: 0.62

Task item: What value of measured minimal effective dose is listed for C=Cc1cncc(N2C[C@H]3CCN[C@H]3C2)c1 [Example 56, dihydrochloride] ?
Reply: 1.9

Task item: What value of measured minimal effective dose is listed for C#Cc1cncc(N2C[C@H]3CCN[C@H]3C2)c1 [Example 35, hydrochloride dihydrochloride] ?
Reply: 1.9

Task item: What value of measured minimal effective dose is listed for Clc1ccc(N2C[C@H]3CCCN[C@H]3C2)cn1 (relative stereo) [Example 22, dihydrochloride] ?
Reply: 1.9

Task item: What value of measured minimal effective dose is listed for c1cncc(N2C[C@H]3CCN[C@H]3C2)c1 [Example 28, dihydrochloride] ?
Reply: 1.9

Task item: What value of measured minimal effective dose is listed for Clc1ccc(N2C[C@H]3CCNC[C@H]32)cn1 [Example 47, difumarate] ?
Reply: 1.9

Task item: What value of measured minimal effective dose is listed for Clc1cc(N2C[C@H]3CCN[C@H]3C2)cnc1Cl [Example 24, hydrochloride] ?
Reply: 6.2

Task item: What value of measured minimal effective dose is listed for Cl.Cl.c1cncc(N2C[C@H]3CNC[C@H]3C2)c1 [Example 1, dihydrochloride] ?
Reply: 0.62

----------
Biological target: neuronal nicotinic acetylcholine receptors (Rattus norvegicus, UniProt P09483+P12390)
Construct: crude synaptic membrane preparations from whole rat brain; from tissue; host or cells: whole rat brain, crude synaptic membranes
Assay: Binding of [3H]-cytisine to neuronal nicotinic acetylcholine receptors, crude synaptic membranes from whole rat brain
Procedure: The In Vitro protocols for determination of nicotinic acetylcholine channel receptor binding potencies of ligands were determined as follows. Washed membranes were stored at −80° C. prior to use. […] Samples were incubated for 60 minutes at 4° C., then rapidly filtered through Whatman GF/B filters presoaked in 0.5% polyethyleneimine using 3×4 mL of ice-cold buffer. The filters are counted in 4 mL of Ecolume® (ICN). […]
pKi: −log10 of the molar value. Counter-ions that a name gives are not always drawn.
pKi of 9 or higher: MET. Under 9: NOT MET.

Task item: Record C=Cc1cc(N2C[C@H]3CCN[C@H]3C2)cnc1Br [Example 65, dihydrochloride] ; criterion: pKi no lower than 9. Met?
Reply: NOT MET

Task item: Record Brc1cncc(N2C[C@@H]3CCN[C@@H]3C2)c1 [Example 31, 4-methylbenzenesulfonate] ; criterion: pKi no lower than 9. Met?
Reply: NOT MET

Task item: Record N#Cc1cncc(N2CC[C@H]3CN[C@H]3C2)c1 (relative stereo) [Example 62, fumarate] ; criterion: pKi no lower than 9. Met?
Reply: MET

Task item: Record Cc1cc(N2C[C@H]3CNC[C@H]32)cnc1Cl [Example 87, 4-methylbenzenesulfonate] ; criterion: pKi no lower than 9. Met?
Reply: MET

Task item: Record [N-]=[N+]=Nc1cncc(N2C[C@H]3CNC[C@H]32)c1 [Example 96, fumarate] ; criterion: pKi no lower than 9. Met?
Reply: NOT MET

Task item: Record N#Cc1cncc(N2C[C@H]3CNC[C@H]32)c1 [Example 74, bis(4-methylbenzenesulfonate)] ; criterion: pKi no lower than 9. Met?
Reply: NOT MET
